System: NCI-H23 lung
test_name: NCI-60 one-dose screen, 48 h (100 = growth as untreated, 0 = no growth, -100 = all killed)
details: 10 µM unless noted
This is part of a sample that, as a whole, favours compounds with a hit. Of some 83,000 tested, about 20% had one in any assay.
endpoint_name: growth (%)
Provide only the numeric value, understood in %.

Exam item: For the compound shown here, CCN(CC)CCOc1ccc(C2=C(c3ccccc3)CCc3cc(OC)ccc32)cc1 , give the reported growth.
Marked response: -11.6

Exam item: Next: COc1ccc(C2=NN(C(=O)c3cc(OC)c(OC)c(OC)c3)C(c3ccc(C#N)cc3)C2)cc1OC (configuration not stated)
Marked response: 43.2

Exam item: Next: CC[N+](C)(CC)CCCC(C)Nc1ccnc2cc(Cl)ccc12 (configuration not stated)
Marked response: 102

Exam item: Next: COc1ccc(CCN2CCCN3C2=Nc2ccccc2S3(=O)=O)cc1
Marked response: 28.8

Exam item: Next: Fc1ccc(-c2nnc(-c3c(-c4ccc(F)cc4)nc4ncccn34)o2)cc1
Marked response: 98.2

Exam item: Next: O=C(CCc1nnc2sc(Cc3ccccc3Cl)nn12)c1nc2ccccc2[nH]1
Marked response: 90.4

Exam item: Next: COc1ccc2c(c1)C(=O)/C(=C/c1ccc([N+](=O)[O-])s1)O2
Marked response: 7.22

Exam item: Next: CN1CCCC1c1cccnc1 (configuration not stated)
Marked response: 2.54

Exam item: Next: CC(C)(C)c1ccc(C(O)CCCN2CCC(C(O)(c3ccccc3)c3ccccc3)CC2)cc1 (configuration not stated)
Marked response: 4.7

Exam item: Next: COc1c(C)c2c(c(O)c1C/C=C(\C)CCC(=O)OCCN1CCOCC1)C(=O)OC2
Marked response: 19.4

Exam item: Next: O=C(C(=O)N1CCCCC1)c1ccc(OC2OC(CO)C(O)C(O)C2O)cc1 (configuration not stated)
Marked response: 101

Exam item: Next: CC(C)c1ccc(C(=O)Nc2sc3c(CN(C)C)c(O)ccc3c2C(N)=O)cc1
Marked response: 49.1

Exam item: Next: Cc1nn(-c2ccc(Cl)cc2)c2nc3c(nc12)C(=O)C(=O)c1ccccc1-3
Marked response: 75.5

Exam item: Next: c1cnc2n[nH]c(Nc3ncnc4c3sc3ncccc34)c2c1
Marked response: 82.4

Exam item: Next: CCOC(=O)c1c(C)nc(C)c(C(=O)OCC)c1-c1cccnc1
Marked response: 101

Exam item: Next: CC1=CSC2=NCCN12
Marked response: 104

Exam item: Next: COc1ccc(C(=O)/C=C/c2c(Cl)nc3c(c(C)nn3-c3ccccc3)c2-c2ccc(Br)cc2)cc1
Marked response: 105

Exam item: Next: Cc1nn(-c2ccc(Br)cc2)c2nc3c(nc12)C(=O)C(=O)c1ccccc1-3
Marked response: 87.2

Exam item: Next: Oc1ccccc1C=Nc1ccccc1N=Cc1ccccc1O.[Cu+2]
Marked response: 33.1

Exam item: Next: O=NC1CC=CCC1c1ccccc1 (configuration not stated)
Marked response: 106

Exam item: Next: O=c1[nH]c(Cl)nc2c1cnn2-c1ccccc1
Marked response: 81.3

Exam item: Next: O=c1cc(-c2cccnc2)oc2c1ccc1ccccc12
Marked response: 69.9
